Listed next: entries and their corresponding %-inhibition, CaMK2γ.
Biological target: panel of more than 300 wild-type and mutant kinases (313 kinase panel) (Homo sapiens, UniProt Q13555)
Experiment: Kinase profiling in a biochemical assay panel (mobility shift assays and ELISA), %-inhibition at 1 μM; selectivity entropy
Conditions: kinase CaMK2γ; 1 μM compound
Write it as a number; the unit % goes unstated.

compound	quantity unit	%-inhibition, CaMK2γ
CNC(=O)c1cc(Oc2ccc(NC(=O)Nc3ccc(Cl)c(C(F)(F)F)c3)c(F)c2)ccn1 [regorafenib]	%	-13

Input: Fill in: %-inhibition, CaMK2γ of Cc1nc(Nc2ncc(C(=O)Nc3c(C)cccc3Cl)s2)cc(N2CCN(CCO)CC2)n1 [dasatinib] is ___
Output: -3.57

Input: Fill in: %-inhibition, CaMK2γ of COc1cc2nccc(Oc3ccc(NC(=O)C4(C(=O)Nc5ccc(F)cc5)CC4)cc3)c2cc1OC [cabozantinib] is ___
Output: -8

Input: Fill in: %-inhibition, CaMK2γ of COc1cc2c(Nc3ccc(Br)cc3F)ncnc2cc1OCC1CCN(C)CC1 [vandetanib] is ___
Output: -13

Input: Fill in: %-inhibition, CaMK2γ of Cc1ccc(Nc2nccc(N(C)c3ccc4c(C)n(C)nc4c3)n2)cc1S(N)(=O)=O [pazopanib] is ___
Output: 0.188

Data provenance: paper PMC3961306
